target: T1, αBPal C-terminal peptide, first binding (Homo sapiens); test: ion-mobility native mass spectrometry titration
T1 chain: ERTIPITRE

Binder	Kd
αB-crystallin core domain (αBDom) 68-153 (protein) MRLEKDRFSVNLDVKHFSPEELKVKVLGDVIEVHGKHEERQDEHGFISREFHRKYRIPADVDPLTITSSLSSDGVLTVNGPRKQVS	~70 µM

The measurements presented in this section are drawn from paper PMC3638394.
